# Tgt: T1, mouse matriptase-2 ECD protein his tag (mouse, UniProt Q9DBI0 80-811)
# T1 sequence: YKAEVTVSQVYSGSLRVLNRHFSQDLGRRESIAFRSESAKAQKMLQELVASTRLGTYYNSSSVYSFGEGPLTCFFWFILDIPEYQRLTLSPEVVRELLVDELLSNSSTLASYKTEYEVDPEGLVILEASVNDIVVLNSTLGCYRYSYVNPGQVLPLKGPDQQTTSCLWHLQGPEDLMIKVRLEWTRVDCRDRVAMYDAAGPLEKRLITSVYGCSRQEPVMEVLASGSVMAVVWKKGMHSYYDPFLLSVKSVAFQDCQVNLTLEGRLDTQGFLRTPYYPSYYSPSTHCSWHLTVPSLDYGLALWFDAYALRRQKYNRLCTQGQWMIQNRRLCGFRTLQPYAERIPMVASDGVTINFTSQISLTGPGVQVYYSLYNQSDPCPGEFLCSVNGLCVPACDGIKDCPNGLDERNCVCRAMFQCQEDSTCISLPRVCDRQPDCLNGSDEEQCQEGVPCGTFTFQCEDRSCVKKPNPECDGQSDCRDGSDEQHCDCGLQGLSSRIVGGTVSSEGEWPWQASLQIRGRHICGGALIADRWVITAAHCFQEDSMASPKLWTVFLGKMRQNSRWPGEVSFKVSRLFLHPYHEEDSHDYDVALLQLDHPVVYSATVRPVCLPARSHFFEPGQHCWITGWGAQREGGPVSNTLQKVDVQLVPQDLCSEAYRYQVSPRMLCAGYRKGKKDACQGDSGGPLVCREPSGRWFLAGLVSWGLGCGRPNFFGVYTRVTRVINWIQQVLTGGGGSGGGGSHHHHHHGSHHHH
# Assay Details: cell-based or functional assay
Measurement Kind: Inhibition enzymatic activity mouse MTP2 protein (IC50) (nM)
Please reply with the bare figure in nM and do not write the unit itself.

The binder NORI-029 (antibody, human IgG4 S228P, lambda, V domains shown) VH: EVQLVESGGGLVKPGRSLRLSCTASGFTFGDYVMSWFRQAPGKGLEWVGFIRSKPYSETTEYAASVRGRFTISRDDSKSIAYLQMNSLKTEDTAVYYCTRALYDLLTGPWMGGDYFYALDVWGQGTTVTVSS VL: QSALTQPPSASGSPGQSVTISCTGTSSDVGDYNYVSWYQQHPGKAPKLMIYEVSKRPSGVPDRFSGSKSGNTASLTVSGLQAEDEADYYCKSYAGSNNLVFGGGTKLTVLG showed Inhibition enzymatic activity mouse MTP2 protein (IC50) equal to 9.35
